Reference source: patent US20170081400A1

- study.system: T1, human TL1A extracellular domain with N-terminal HIS and FLAG tag (human) (UniProt O95150)
- T1 sequence: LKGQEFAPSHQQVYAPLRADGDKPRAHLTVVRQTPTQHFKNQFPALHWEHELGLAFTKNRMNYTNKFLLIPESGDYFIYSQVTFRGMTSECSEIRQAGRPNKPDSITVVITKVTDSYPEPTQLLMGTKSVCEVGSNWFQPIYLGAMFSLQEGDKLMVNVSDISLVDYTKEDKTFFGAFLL
- method: cell-based or functional assay
Items are presented alongside their recorded Antibody IC50, TL1A induced caspase potency assay in TF-1 cells.
Give a bare numeral; the unit µg/mL is implied.

Consider the worked cases shown below.
In: So what's the measured Antibody IC50, TL1A induced caspase potency assay in TF-1 cells for this one? 320-189 (antibody, human IgG1, name in Kabat numbering, V domains shown, human IgG1, lambda) VH: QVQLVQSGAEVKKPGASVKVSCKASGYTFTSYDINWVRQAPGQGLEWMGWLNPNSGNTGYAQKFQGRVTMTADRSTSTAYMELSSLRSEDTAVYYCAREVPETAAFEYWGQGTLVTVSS VL: QSVLTQPPSVSGAPGQRVTISCTSSSSDIGAGLGVHWYQQLPGTAPKLLIEGYYNRPSGVPDRFSGSKSGTSASLTITGLKPEDEGDYYCQSYDGTLSALFGGGTKLTVLG
Out: 0.11

In: So what's the measured Antibody IC50, TL1A induced caspase potency assay in TF-1 cells for this one? 320-263 (antibody, human IgG1, name in Kabat numbering, V domains shown, human IgG1, lambda) VH: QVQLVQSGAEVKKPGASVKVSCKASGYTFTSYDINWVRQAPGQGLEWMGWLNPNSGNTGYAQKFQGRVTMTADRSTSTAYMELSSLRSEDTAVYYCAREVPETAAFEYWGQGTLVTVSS VL: QSVLTQPPSVSGAPGQRVTISCTSSSSDIGKGLGVHWYQQLPGTAPKLLIEGYYNRPSGVPDRFSGSKSGTSASLTITGLLPEDEGDYYCQSYDGTLSALFGGGTKLTVLG
Out: 0.003

In: So what's the measured Antibody IC50, TL1A induced caspase potency assay in TF-1 cells for this one? 320-326 (antibody, human IgG1, name in Kabat numbering, V domains shown, human IgG1, lambda) VH: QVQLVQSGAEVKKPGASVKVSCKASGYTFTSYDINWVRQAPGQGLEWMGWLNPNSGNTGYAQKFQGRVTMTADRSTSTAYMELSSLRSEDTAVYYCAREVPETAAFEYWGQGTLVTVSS VL: QSVLTQPPSVSGAPGQRVTISCTSSSSDIGAGLGVHWYQQLPGTAPKLLIEGYYNRPSGVPDRFSGSKSGTSASLTITGLLPEDEGDYYCQSSDGTLSALFGGGTKLTVLG
Out: 0.03

Continue with the binder presented below.
In: So what's the measured Antibody IC50, TL1A induced caspase potency assay in TF-1 cells for this one? 320-307 (antibody, human IgG1, name in Kabat numbering, V domains shown, human IgG1, lambda) VH: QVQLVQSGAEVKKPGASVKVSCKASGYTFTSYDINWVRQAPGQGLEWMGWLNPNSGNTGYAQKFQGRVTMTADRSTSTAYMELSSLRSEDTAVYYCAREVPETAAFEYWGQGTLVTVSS VL: QSVLTQPPSVSGAPGQRVTISCTSSSSDIGAGLGVLWYQQLPGTAPKLLIEGYYNRPSGVPDRFSGSKSGTSASLTITGLLPEDEGDYYCQSYDGTLSALFGGGTKLTVLG
Out: 0.01
